src = patent US20240279281A1

In this section we review reported IL23R Reporter Assay IC50 values for a set of binders.
Tested system: T1, interleukin-23 receptor (IL-23R), Q5VWK5
T1 chain: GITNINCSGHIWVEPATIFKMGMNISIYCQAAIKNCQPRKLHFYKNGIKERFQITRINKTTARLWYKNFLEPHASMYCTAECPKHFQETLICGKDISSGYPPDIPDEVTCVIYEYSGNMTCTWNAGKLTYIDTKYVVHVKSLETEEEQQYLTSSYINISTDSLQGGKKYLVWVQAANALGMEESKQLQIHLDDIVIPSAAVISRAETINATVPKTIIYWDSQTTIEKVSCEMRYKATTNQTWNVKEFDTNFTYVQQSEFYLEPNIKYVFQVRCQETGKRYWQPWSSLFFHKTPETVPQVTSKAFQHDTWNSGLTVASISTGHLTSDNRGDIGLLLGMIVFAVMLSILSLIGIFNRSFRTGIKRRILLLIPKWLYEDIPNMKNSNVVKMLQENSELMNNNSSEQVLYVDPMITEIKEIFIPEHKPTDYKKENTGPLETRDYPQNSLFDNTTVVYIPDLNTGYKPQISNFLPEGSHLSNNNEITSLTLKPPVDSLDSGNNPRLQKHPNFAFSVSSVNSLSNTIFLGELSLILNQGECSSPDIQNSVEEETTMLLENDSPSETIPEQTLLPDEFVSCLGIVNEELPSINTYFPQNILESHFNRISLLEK
Assay explanation: cell-based or functional assay
Positions of bridges follow the written chain, without caps; N, C: chain ends. Non-standard residues stand in square brackets, D forms with d. No end group written: not given here. 2Nal(6-OH) = N[C@@H](Cc1ccc2cc(O)ccc2c1)C(=O)O; Trp(7-Me) = Cc1cccc2c(C[C@H](N)C(=O)O)c[nH]c12; AEF = NCCOc1ccc(C[C@H](N)C(=O)O)cc1; αMeF = C[C@](N)(Cc1ccccc1)C(=O)O; 3Pal = N[C@@H](Cc1cccnc1)C(=O)O; Pen = CC(C)(S)[C@H](N)C(=O)O; αMeK = C[C@](N)(CCCCN)C(=O)O; lipid = not defined here; Thp = NC1(C(=O)O)CCOCC1; Sar = CNCC(=O)O
Readout label: IL23R Reporter Assay IC50

Binder	Observed measurement
R[Pen]NT[Trp(7-Me)]K(Ac)[Pen][2‑amino‑3‑(4-(2-aminoethoxy)phenyl)propanoic acid][2‑amino‑3‑(6-hydroxynaphthalen-2-yl)propanoic acid][Thp]K(Ac)N[3Pal][Sar]K(lipid) (disulfide 2-7 (inferred); ends not checked; also: Lys15 lipidated, lipid not given here) [SEQ ID NO: 222]	> 100 nM
K[Pen]NT[Trp(7-Me)]K(Ac)[Pen][2‑amino‑3‑(4-(2-aminoethoxy)phenyl)propanoic acid][2‑amino‑3‑(6-hydroxynaphthalen-2-yl)propanoic acid][Thp]EN[3Pal][Sar] (disulfide 2-7 (inferred); not fully specified (residue 1); ends not checked; also: K1: lipidated lysine, lipid not given here) [SEQ ID NO: 90]	< 10 nM
R[Pen]NT[Trp(7-Me)]K[Pen][AEF][2Nal(6-OH)][Thp]EN[3Pal][Sar] (disulfide 2-7 (inferred); ends not checked; also: K6: lipidated lysine, lipid not given here) [SEQ ID NO: 120]	> 100 nM
[Pen]ET[Trp(7-Me)][N,N,N‑trimethylhomolysine][Pen][2‑amino‑3‑(4-(2-(methylamino)ethoxy)phenyl)propanoic acid][2‑amino‑3‑(6-hydroxynaphthalen-2-yl)propanoic acid][Thp]EN[3Pal][Sar] (not fully specified (bridges); ends and bridges not checked) [SEQ ID NO: 382]	< 10 nM
[Pen]LT[Trp(7-Me)]K(Ac)[Pen]F[2Nal(6-OH)][αMeK]LN[3Pal][Sar] (disulfide 1-6 (inferred); ends not checked) [SEQ ID NO: 304]	< 10 nM
R[Pen]NT[Trp(7-Me)]K(Ac)[Pen][2‑amino‑3‑(4-(2-aminoethoxy)phenyl)propanoic acid][2‑amino‑3‑(5-methylnaphthalen-2-yl)propanoic acid][Thp]EN[αMeF] (disulfide 2-7 (inferred); ends not checked) [SEQ ID NO: 445]	> 100 nM
